# Tested on: Fibroblast
# Assay Comment: Multiplex assay against human fibroblast
# Assay type: toxicity, cell-based
# Assay Context: 12 h, 1 µM, compound concentration 1 uM, replicate 2
Recorded Endpoint: Population Mitochondria Different-Phenotype (%)

> print(dat)
                                   compound  readout.unit  reported.result
1  CCN1CCN(c2ccc(Nc3cc(N(C)C(=O)Nc4c(Cl)c(OC)cc(OC)c4Cl)ncn3)cc2)CC1             %               27
2  CN(C)C(=O)C(CCN1CCC(O)(c2ccc(Cl)cc2)CC1)(c1ccccc1)c1ccccc1.Cl [LOPERAMIDE HYDROCHLORIDE]             %               90
3  S=C(NCCCc1c[nH]cn1)NCCCN(Cc1ccc(Cl)c(Cl)c1)c1ccc(Br)cn1             %                8
4  CCOC(=O)c1c(C)[nH]c2ccc3c(c12)CN1CCc2cc(OC)ccc2C1O3 (stereo not drawn)             %               70
5  Cc1cn(-c2cc(NC(=O)c3ccc(C)c(Nc4nccc(-c5cccnc5)n4)c3)cc(C(F)(F)F)c2)cn1             %               18
6  CCNc1cc(N[C@H]2CC[C@H](O)CC2)nc(Nc2ccc3c(ccn3Cc3ccccc3)c2)n1             %               17
7  CNc1cc(Oc2cc(C(=O)Nc3cc(N4CCN(C)CC4)cc(C(F)(F)F)c3)ccc2C)ncn1             %               60
8  CCn1c(=O)c(-c2ccc(-c3cncs3)cc2Cl)cc2cnc(Nc3ccc(N4CCN(C)CC4)cc3)nc21             %               17
